target: Bromodomain-containing protein 3 (Homo sapiens); assay: Inhibition of recombinant human N-terminal GST-tagged BRD3 bromodomain-2 (306 to 417 residues) expressed in Escherichia coli expression system after 120 mins by TR-FRET assay
Sequence (Q15059 whole entry, the tested form may be a part): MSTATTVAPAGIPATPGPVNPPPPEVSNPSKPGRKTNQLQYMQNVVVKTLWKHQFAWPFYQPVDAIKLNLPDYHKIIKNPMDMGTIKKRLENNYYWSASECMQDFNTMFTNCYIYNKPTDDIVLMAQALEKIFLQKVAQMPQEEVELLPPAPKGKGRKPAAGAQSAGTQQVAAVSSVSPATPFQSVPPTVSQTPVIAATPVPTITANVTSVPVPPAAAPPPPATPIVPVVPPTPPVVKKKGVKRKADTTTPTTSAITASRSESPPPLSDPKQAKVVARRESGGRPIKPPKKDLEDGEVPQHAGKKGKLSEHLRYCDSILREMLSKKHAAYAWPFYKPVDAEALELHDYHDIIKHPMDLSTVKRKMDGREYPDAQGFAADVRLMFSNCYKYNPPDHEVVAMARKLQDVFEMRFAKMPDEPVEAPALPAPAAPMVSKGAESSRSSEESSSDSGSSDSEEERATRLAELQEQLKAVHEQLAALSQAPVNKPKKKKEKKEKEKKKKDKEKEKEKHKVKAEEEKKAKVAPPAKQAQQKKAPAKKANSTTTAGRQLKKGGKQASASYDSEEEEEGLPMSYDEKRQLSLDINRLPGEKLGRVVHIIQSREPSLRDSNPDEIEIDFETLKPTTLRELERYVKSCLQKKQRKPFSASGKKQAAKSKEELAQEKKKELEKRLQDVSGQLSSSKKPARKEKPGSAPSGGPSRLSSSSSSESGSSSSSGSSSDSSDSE
observed.property: IC50

Please fill in: IC50 reported for Cc1cc(-c2nc3sc4c(c3c(=O)[nH]2)CCN(C)C4)cc(C)c1O = > 100 µM

====

biological target: Bromodomain-containing protein 4 (Homo sapiens, UniProt O60885); assay: Inhibition of recombinant human BRD4 bromodomain-1 (49 to 170 residues) expressed in Escherichia coli expression system after 120 mins by TR-FRET assay
observed.property: IC50
Your reply should be a number followed by the unit it is expressed in.

The recorded IC50 for Cc1cc(-c2nc3sc4c(c3c(=O)[nH]2)CCN(C)C4)cc(C)c1O is 470 nM
